System: MDA-MB-468 breast
Assay: NCI tumour cell line growth inhibition, 48 h; in the data active = GI50 below about 0.43 µM; inactive = the rest
Labels: 1 for active, -1 for inactive

1. Cc1ccc(C[As+](c2ccccc2)(c2ccccc2)c2ccccc2)cc1 :: 1
2. Oc1ccc2c(=S)cc(-c3ccc(Br)cc3)oc2c1O :: -1
3. COc1ccc(NC(=O)CSc2nnc(-c3ccc(-c4nc5ccc(Cl)cc5[nH]4)cc3)o2)cc1 :: -1
4. CN1CCC2(CC1)N=C(SCC(=O)Nc1cnc3ccccc3c1)C(c1ccc(Br)cc1)=N2 :: -1
5. COc1cc(-c2nn(-c3ccc(NC(=O)Nc4cc(C(F)(F)F)cc(C(F)(F)F)c4)cc3)cc2-c2ccncc2)ccc1Cl :: -1
6. CCCCC(=O)N(c1ccc(Nc2c3ccccc3nc3cc([N+](=O)[O-])ccc23)cc1)S(C)(=O)=O :: -1
